Collected %Inh values appear next to each entry.
system: MEK1; construct: gene MAP2K1; details: concentration: 1 μM, replicates: in singlicate; n = 1;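 note: KINOMEscan kinase panel screen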
Please answer using the number first and the unit second.

Note to self: %Inh recorded for Cn1cc(-c2cnc(N)c3c(-c4ccc5c(c4)CCN5C(=O)Cc4ccccc4)csc23)cn1 was 36%

* * *

system: ULK3; details: concentration: 1 μM, replicates: in singlicate; n = 1
# label = bin(measured %Inh), where bins are class A (below 9%), class B (9% to below 30%), class C (30% or more)

Solved cases below.
CCNc1nccc(-c2c(-c3ccc(F)cc3)ncn2C2CCN(C)CC2)n1 | class A
Cc1ccc(NC(=O)c2cccc(N3CCCCC3)c2)cc1-c1ccc(C(=O)NCC2CC2)cc1 [GSK1917008] | class B
COc1cccc(NC(=O)NCCNc2ccnc(Nc3ccc(F)cc3)n2)c1 [GSK1379879] | class B
COc1cccc(-c2nc(-c3ccccc3)[nH]c2-c2ccncc2)c1 [SB-610250] | class B
Cn1cc(-c2ccc3c(c2)CCN3C(=O)Cc2cc(F)cc(F)c2F)c2c(N)ncnc21 [GSK2634140] | class A

Inquiry: Sort O=C(O)C(F)(F)F.O=c1[nH]ccc2nc(N[C@@H]3CCNC3)nc(Nc3cc(Cl)cc(Cl)c3)c12 [GSK2188764] into one of the categories.
Reply text: class C

Inquiry: Where would Fc1cc(Cl)ccc1Nc1ccnc2cc(-c3ccc(CN4CCSCC4)o3)ccc12 [GW560106] land among the classes by reported %Inh?
Reply text: class B

Inquiry: Could you tell me which band c1ccc(Oc2ccc(Nc3ccnc4cc(-c5ccc(CN6CCCCC6)o5)ccc34)cc2)nc1 [GW567143] belongs to?
Reply text: class B

Inquiry: The entry to classify is Nc1cccc(-c2ccc3c(N)n[nH]c3c2)c1 [GSK2193613] ; which class holds it?
Reply text: class A

Inquiry: // return the class label for O=C(Nc1n[nH]c2nc(-c3cccc(O)c3)ccc12)C1CC1 [SB-711805]
Reply text: class A

Inquiry: Determine which band this compound sits in: CN(C)CCNS(=O)(=O)c1ccc(-c2ccnc3[nH]ccc23)cc1 [GSK977620]
Reply text: class B

Inquiry: Lab note: sort Cn1cc(-c2ccc3c(c2)CCN3C(=O)Cc2cc(F)cc(C(F)(F)F)c2)c2c(N)ncnc21 [GSK2635225] into the matching %Inh band.
Reply text: class A

* * *

Overview of recorded %Inh for various molecules
tested on: PIK3CD; settings: concentration: 1 μM, replicates: in singlicate; n = 1
Give the value in % but do not write % after it.

Known %Inh results, listed for orientation:
Fc1cc(Cl)ccc1Nc1ccnc2cc(-c3ccc(CN4CCOCC4)o3)ccc12 | 21
COc1ccc(C2=C(Nc3cccc(O)c3)C(=O)NC2=O)cc1 | 2
O=C1NC(=O)C(c2ccccc2Cl)=C1Nc1cccc(Cl)c1 | 0
Cc1cccc(Nc2nc(N[C@H]3CCCC[C@H]3N)ncc2C(N)=O)c1.Cl | 0
CN(c1ccc2c(c1)nc(NCc1ccccc1)n2C)c1ccnc(Nc2ccc(CS(C)(=O)=O)cc2)n1.Cl | 0

Record summary for COc1ccc(NC(=O)c2ccoc2)cc1-c1ccc(C(=O)NCC2CC2)cc1 : reported %Inh = 0

%Inh reported for this molecule O=C(Nc1n[nH]c2nc(-c3ccccc3O)ccc12)C1CC1 : 0

Query O=C(Nc1n[nH]c2nc(-c3cccc(O)c3)ccc12)C1CC1 yields %Inh of 0

Recorded result, Cc1ccc(NC(=O)c2cccc(N3CCCCC3)c2)cc1-c1ccc(C(=O)NCC2CC2)cc1 , %Inh: 25

Looking up CC(C)(C)c1ccc(C(=O)Nc2cn3cc(-n4ccnc4)ccc3n2)cc1 , I see its %Inh listed as 0

Note to self: %Inh recorded for COc1cccc(CC(=O)N2CCc3cc(-c4cn(C)c5ncnc(N)c45)ccc32)c1 was 0

CC(C)c1nc(-c2ccc(F)c(NS(=O)(=O)c3c(F)cccc3F)c2)c(-c2ccnc(Nc3ccc(N4CCOCC4)nc3)n2)s1 has a reported %Inh of 10

Value of %Inh reported for the molecule Cc1ccccc1CC(=O)N1CCc2cc(-c3cn(C)c4ncnc(N)c34)ccc21 is 25

Every entry's value here was drawn from paper PMC5540273.
